molecular target: T1, human LIF protein (human, UniProt P15018 23-202); assay: ELISA, antigen coated 0.5 ug/ml, 293S supernatant non-heated, antibody 0.2 ug/mL
T1 construct: Bought recombinant protein (Sino Biological / Yiqiao Shenzhou 14890-HNAH) in most assays; also called recombinant human LIF protein; rhLIF
T1 sequence (P15018 23-202 limits assumed): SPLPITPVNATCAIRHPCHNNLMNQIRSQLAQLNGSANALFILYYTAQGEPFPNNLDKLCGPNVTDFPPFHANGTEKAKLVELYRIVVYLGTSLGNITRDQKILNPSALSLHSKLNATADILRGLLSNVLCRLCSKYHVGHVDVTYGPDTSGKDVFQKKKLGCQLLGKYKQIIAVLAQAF
Recorded measurements of ELISA signal, one per entry
Readout: ELISA signal

Binder | Readout Number
38E HuH1L4 (antibody, human IgG1, kappa, N297A, V domains shown, Humanized, human IgG1 / kappa) VH: EVMLLESGGGLVQPGGSLRLSCAASGFIFSSYAMSWVRQAPGTGLEWVATISSGGSNTYSPDTVKGRFTISRDNSKNTLYLQMNSLRAEDTAVYYCARYYGYYFDFWGQGTLLTVSS VL: DIHMTQSPSSLSASVGDRVTITCRASENIYSYLAWYQQKQGKSPQLLVYNAKTLAEGVPSRFSGSGSGTQFTLKINSLQPEDFATYYCQHHYVTPLTFGQGTKLEIKR | 10900
38E HuH2L4 (antibody, human IgG1, kappa, V domains shown, Humanized, human IgG1 / kappa) VH: EVMLVESGGGLVQPGGSLRLSCAASGFIFSSYAMSWVRQAPGTGLEWVATISSGGSNTYSPDTVKGRFTISRDNSKNTLYLQMNSLRAEDTAMYYCARYYGYYFDFWGQGTLLTVSS VL: DIHMTQSPSSLSASVGDRVTITCRASENIYSYLAWYQQKQGKSPQLLVYNAKTLAEGVPSRFSGSGSGTQFTLKINSLQPEDFATYYCQHHYVTPLTFGQGTKLEIKR | 10900
H2L3 (antibody, human IgG1, kappa, V domains shown, Humanized, human IgG1 / kappa) VH: EVMLVESGGGLVQPGGSLRLSCAASGFIFSSYAMSWVRQAPGTGLEWVATISSGGSNTYSPDTVKGRFTISRDNSKNTLYLQMNSLRAEDTAMYYCARYYGYYFDFWGQGTLLTVSS VL: DIHMTQSPSSLSASVGDRVTITCRASENIYSYLAWYQQKPGKSPQLLVYNAKTLAEGVPSRFSGSGSGTQFTLTISSLQPEDFATYYCQHHYVTPLTFGQGTKLEIKR | 11300
H3L3 (antibody, human IgG1, kappa, N297A, V domains shown, Humanized, human IgG1 / kappa) VH: EVMLVESGGGLVQPGGSLRLSCAASGFIFSSYAMSWVRQAPETRLEWVATISSGGSNTYSPDTVKGRFTISRDNSKNTLYLQMNSLRAEDTAMYYCARYYGYYFDFWGQGTLLTVSS VL: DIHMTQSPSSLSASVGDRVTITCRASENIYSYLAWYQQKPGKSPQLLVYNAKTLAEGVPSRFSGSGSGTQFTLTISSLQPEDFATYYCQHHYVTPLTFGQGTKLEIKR | 11000
